B1: CCNC (parent)
chain: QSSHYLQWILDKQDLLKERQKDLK

Variants of: B1
protocol.text: protein stability index of a GFP-peptide fusion (GPS, HEK-293T) (PSI 1-6); higher = more stable;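 note: lentivirally expressed fusions sorted by FACS into six bins by GFP to DsRed ratio, PSI derived from sequencing read proportions per bin multiplied by bin number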
assay.conditions: c terminus: a fixed tail appended
result.type: protein stability index
Please state the value as a number alone, without comment.

For orientation, consider the following solved cases.
DSSHYLQWILDKQDLLKERQKDLK [Q1D]: 2.94
QSSHYLQWILDKQDLLKEHQKDLK [R19H]: 3.03

# input for lookup
# variant QSSHYLQWILDKQDLLKERQKDLV [K24V] ; its protein stability index = 2.92
